Values from patent US20220010021A1

Consider the following binders and their measured koff readings.
Molecular target: T1, human beta-Klotho (KLB) (human, UniProt Q86Z14 53-997);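 further: Anti-KLB antibodies captured on anti-human Fc CM5 chip, KLB injected as analyte, 180 s association and 1800 s dissociation, fitted to 1:1 binding model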
T1 construct: bought protein; also called human KLB
T1 sequence (looked up): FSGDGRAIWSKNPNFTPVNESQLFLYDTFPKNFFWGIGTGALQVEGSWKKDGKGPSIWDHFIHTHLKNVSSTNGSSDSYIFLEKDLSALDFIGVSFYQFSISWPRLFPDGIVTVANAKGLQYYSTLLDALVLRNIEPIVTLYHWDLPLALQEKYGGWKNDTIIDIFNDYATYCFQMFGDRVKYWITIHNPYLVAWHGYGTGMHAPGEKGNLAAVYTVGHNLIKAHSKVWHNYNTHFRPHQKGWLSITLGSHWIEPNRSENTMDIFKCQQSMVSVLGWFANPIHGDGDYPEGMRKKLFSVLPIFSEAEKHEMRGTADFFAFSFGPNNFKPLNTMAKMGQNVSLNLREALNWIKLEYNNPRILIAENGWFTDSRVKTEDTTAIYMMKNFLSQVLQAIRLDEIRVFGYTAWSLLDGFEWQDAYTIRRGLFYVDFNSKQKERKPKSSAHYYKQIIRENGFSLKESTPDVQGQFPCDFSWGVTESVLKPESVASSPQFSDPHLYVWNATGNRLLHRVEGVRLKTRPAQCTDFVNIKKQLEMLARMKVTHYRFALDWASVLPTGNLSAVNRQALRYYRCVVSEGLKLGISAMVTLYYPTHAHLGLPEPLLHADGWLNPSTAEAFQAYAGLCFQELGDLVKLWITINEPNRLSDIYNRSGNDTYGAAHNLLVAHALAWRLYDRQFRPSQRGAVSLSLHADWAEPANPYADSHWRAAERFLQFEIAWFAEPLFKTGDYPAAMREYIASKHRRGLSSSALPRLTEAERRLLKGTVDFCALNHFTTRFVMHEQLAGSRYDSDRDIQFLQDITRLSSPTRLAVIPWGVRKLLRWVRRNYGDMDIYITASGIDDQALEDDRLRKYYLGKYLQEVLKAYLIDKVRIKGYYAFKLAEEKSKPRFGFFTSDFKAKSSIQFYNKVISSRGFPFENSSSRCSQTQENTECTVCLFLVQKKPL
Test: SPR
MEASUREMENT TYPE: koff (s⁻¹)

>>> readout_value("Ab0358 (antibody, IgG4, V domains shown, IgG4 PE) VH: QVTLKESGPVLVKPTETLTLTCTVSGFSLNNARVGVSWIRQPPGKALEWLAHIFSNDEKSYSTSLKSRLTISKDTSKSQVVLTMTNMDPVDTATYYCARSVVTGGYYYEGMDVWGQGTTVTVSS VL: SYVLTQPPSVSVAPGQTARITCGGSNIGSESVHWYQQKPGQAPVLVVYEASDRPSGIPERFSGSNSGNTATLTISRVEAGDEADYYCQVWHGSSDHVVFGGGTKLTVLG")
0.000454
>>> readout_value("Ab0296 (antibody, IgG4, V domains shown, IgG4 PE) VH: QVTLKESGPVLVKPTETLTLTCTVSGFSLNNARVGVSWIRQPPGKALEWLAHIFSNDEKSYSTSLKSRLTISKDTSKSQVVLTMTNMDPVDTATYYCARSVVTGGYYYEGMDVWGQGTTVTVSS VL: SYVLTQPPSVSVAPGQTARITCGGSNIGSESVHWYQQKPGQAPVLVVYDESDRPSGIPERFSGSNSGNTATLTISRVEAGDEADYYCQVWDGNSDHVVFGGGTKLTVLG")
0.00137
>>> readout_value("Ab0333 (antibody, IgG4, V domains shown, IgG4 PE) VH: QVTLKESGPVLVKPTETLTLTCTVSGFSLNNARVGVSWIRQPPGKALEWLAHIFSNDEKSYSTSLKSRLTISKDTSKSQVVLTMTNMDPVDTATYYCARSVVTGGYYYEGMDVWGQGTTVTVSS VL: SYVLTQPPSVSVAPGQTARITCGGSNIGSESVHWYQQKPGQAPVLVVYSYSDRPSGIPERFSGSNSGNTATLTISRVEAGDEADYYCQVWAGSSDHVVFGGGTKLTVLG")
0.000251
>>> readout_value("Ab0417 (antibody, IgG4, V domains shown, IgG4 PE) VH: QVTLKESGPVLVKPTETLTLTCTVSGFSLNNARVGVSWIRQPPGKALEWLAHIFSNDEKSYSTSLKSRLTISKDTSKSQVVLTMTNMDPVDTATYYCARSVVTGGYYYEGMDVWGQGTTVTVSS VL: SYVLTQPPSVSVAPGQTARITCGGSNIGSESVHWYQQKPGQAPVLVVYYESDRPSGIPERFSGSNSGNTATLTISRVEAGDEADYYCQVWHGESDHVVFGGGTKLTVLG")
0.000303
>>> readout_value("Ab0338 (antibody, IgG4, V domains shown, IgG4 PE) VH: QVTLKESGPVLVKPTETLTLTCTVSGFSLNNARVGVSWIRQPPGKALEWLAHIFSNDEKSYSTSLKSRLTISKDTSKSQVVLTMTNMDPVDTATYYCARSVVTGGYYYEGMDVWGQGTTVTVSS VL: SYVLTQPPSVSVAPGQTARITCGGSNIGSESVHWYQQKPGQAPVLVVYSSSDRPSGIPERFSGSNSGNTATLTISRVEAGDEADYYCQVWAGSSDHVVFGGGTKLTVLG")
0.000429
